Measured target: T1, AT3G52980-LOTUS (plant, UniProt Q9LF94 199-282)
T1 sequence: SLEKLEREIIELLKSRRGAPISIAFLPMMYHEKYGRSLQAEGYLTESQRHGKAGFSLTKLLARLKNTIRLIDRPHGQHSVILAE
Assay details: ELISA

| Binder | binding result |
| --- | --- |
| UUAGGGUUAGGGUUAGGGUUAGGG (structured_RNA) [TERRA G4 RNA] | binds |
| GGUCCGCAGCCGAGUCCGGGUCCG (ssRNA) [Cluster G4-1 mut RNA] | no binding |
| GGUGGGCAGGGGAGUGGGGGUGGG (structured_RNA) [Cluster G4-1 RNA] | binds |
| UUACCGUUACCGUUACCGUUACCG (ssRNA) [TERRA G4 mut RNA] | no binding |
